# Tested on: MCF7
# PROCEDURE TEXT: HRG-induced Akt activation (dPAkt = log2 pAkt/Akt HRG-stimulated minus log2 pAkt/Akt basal) (log2 ratio difference); higher = stronger HRG-induced Akt(T308) phosphorylation
# CONDITION DESCRIPTION: miRNA mimic concentration 10 nM; time after transfection 72 h; heregulin 10 ng/ml; stimulation time 1 h
Kindly state HRG-induced Akt activation (log2) for each of the entries shown.
Lab note: jot down the number only; don't add units.

### Prompt Hi! What's the reported HRG-induced Akt activation (log2) for UUUAGAGACGGGGUCUUGCUCU on MCF7?
### Response 1.54

### Prompt Hi! What's the reported HRG-induced Akt activation (log2) for CGUGUUCACAGCGGACCUUGAU on MCF7?
### Response 1.89

### Prompt Hi! What's the reported HRG-induced Akt activation (log2) for GCUAGUCCUGACUCAGCCAGU on MCF7?
### Response 2.19

### Prompt Hi! What's the reported HRG-induced Akt activation (log2) for UAUGGCUUUUCAUUCCUAUGUGA on MCF7?
### Response 1.12

### Prompt Hi! What's the reported HRG-induced Akt activation (log2) for UUGAGAAGGAGGCUGCUG on MCF7?
### Response 1.18

### Prompt Hi! What's the reported HRG-induced Akt activation (log2) for UGGGUCUUUGCGGGCGAGAUGA on MCF7?
### Response 1.89

### Prompt Hi! What's the reported HRG-induced Akt activation (log2) for CAAAGUGCUCAUAGUGCAGGUAG on MCF7?
### Response 1.34

### Prompt Hi! What's the reported HRG-induced Akt activation (log2) for CUUGGCACCUAGCAAGCACUCA on MCF7?
### Response 1.45

### Prompt Hi! What's the reported HRG-induced Akt activation (log2) for ACUGCUGAGCUAGCACUUCCCG on MCF7?
### Response 1.04

### Prompt Hi! What's the reported HRG-induced Akt activation (log2) for CUCUUGAGGGAAGCACUUUCUGU on MCF7?
### Response 2.16

### Prompt Hi! What's the reported HRG-induced Akt activation (log2) for AACUGGCCUACAAAGUCCCAGU on MCF7?
### Response 2.21

### Prompt Hi! What's the reported HRG-induced Akt activation (log2) for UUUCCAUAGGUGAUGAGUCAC on MCF7?
### Response 1.09

### Prompt Hi! What's the reported HRG-induced Akt activation (log2) for GAAAUCAAGCGUGGGUGAGACC on MCF7?
### Response 1.77

### Prompt Hi! What's the reported HRG-induced Akt activation (log2) for CUCCCACAUGCAGGGUUUGCA on MCF7?
### Response 1.81

### Prompt Hi! What's the reported HRG-induced Akt activation (log2) for GGUGCAGUGCUGCAUCUCUGGU on MCF7?
### Response 1.28

### Prompt Hi! What's the reported HRG-induced Akt activation (log2) for UCACAAGUCAGGCUCUUGGGAC on MCF7?
### Response 1.27

### Prompt Hi! What's the reported HRG-induced Akt activation (log2) for UUUUGCACCUUUUGGAGUGAA on MCF7?
### Response 1.55

### Prompt Hi! What's the reported HRG-induced Akt activation (log2) for UGAGAACUGAAUUCCAUAGGCU on MCF7?
### Response 2.34

### Prompt Hi! What's the reported HRG-induced Akt activation (log2) for UAUGGCACUGGUAGAAUUCACU on MCF7?
### Response 1.65

### Prompt Hi! What's the reported HRG-induced Akt activation (log2) for UAUGUAACACGGUCCACUAACC on MCF7?
### Response 1.73

### Prompt Hi! What's the reported HRG-induced Akt activation (log2) for CAGGUCGUCUUGCAGGGCUUCU on MCF7?
### Response 1.44

### Prompt Hi! What's the reported HRG-induced Akt activation (log2) for AAUAUAACACAGAUGGCCUGU on MCF7?
### Response 1.36

### Prompt Hi! What's the reported HRG-induced Akt activation (log2) for AGGUUGACAUACGUUUCCC on MCF7?
### Response 1.43

### Prompt Hi! What's the reported HRG-induced Akt activation (log2) for GUCCCUGUUCAGGCGCCA on MCF7?
### Response 1.73

### Prompt Hi! What's the reported HRG-induced Akt activation (log2) for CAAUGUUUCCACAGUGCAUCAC on MCF7?
### Response 1.1

### Prompt Hi! What's the reported HRG-induced Akt activation (log2) for GUGUGCGGAAAUGCUUCUGCUA on MCF7?
### Response 1.18

### Prompt Hi! What's the reported HRG-induced Akt activation (log2) for CUACAAAGGGAAGCCCUUUC on MCF7?
### Response 1.62

### Prompt Hi! What's the reported HRG-induced Akt activation (log2) for UCCUGCGCGUCCCAGAUGCCC on MCF7?
### Response 1.15

### Prompt Hi! What's the reported HRG-induced Akt activation (log2) for AGGGGCUGGCUUUCCUCUGGUC on MCF7?
### Response 1.57

### Prompt Hi! What's the reported HRG-induced Akt activation (log2) for GGCUACAACACAGGACCCGGGC on MCF7?
### Response 1.88

### Prompt Hi! What's the reported HRG-induced Akt activation (log2) for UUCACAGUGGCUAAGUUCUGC on MCF7?
### Response 1.73

### Prompt Hi! What's the reported HRG-induced Akt activation (log2) for CGAAUCAUUAUUUGCUGCUCUA on MCF7?
### Response 1.44

### Prompt Hi! What's the reported HRG-induced Akt activation (log2) for AUAUAUGAUGACUUAGCUUUU on MCF7?
### Response 2.03

### Prompt Hi! What's the reported HRG-induced Akt activation (log2) for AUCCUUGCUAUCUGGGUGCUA on MCF7?
### Response 1.94

### Prompt Hi! What's the reported HRG-induced Akt activation (log2) for GUGAGGGCAUGCAGGCCUGGAUGGGG on MCF7?
### Response 1.43

### Prompt Hi! What's the reported HRG-induced Akt activation (log2) for UGAGGUAGGAGGUUGUAUAGUU on MCF7?
### Response 1.11

### Prompt Hi! What's the reported HRG-induced Akt activation (log2) for UCUAGGCUGGUACUGCUGA on MCF7?
### Response 1.57

### Prompt Hi! What's the reported HRG-induced Akt activation (log2) for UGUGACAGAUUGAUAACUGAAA on MCF7?
### Response 1.84

### Prompt Hi! What's the reported HRG-induced Akt activation (log2) for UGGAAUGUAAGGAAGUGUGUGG on MCF7?
### Response 2.05

### Prompt Hi! What's the reported HRG-induced Akt activation (log2) for AUCACACAAAGGCAACUUUUGU on MCF7?
### Response 1.78

### Prompt Hi! What's the reported HRG-induced Akt activation (log2) for CCUCCUGCCCUCCUUGCUGU on MCF7?
### Response 2.4

### Prompt Hi! What's the reported HRG-induced Akt activation (log2) for UGGUUUACCGUCCCACAUACAU on MCF7?
### Response 0.811

### Prompt Hi! What's the reported HRG-induced Akt activation (log2) for CUGUAUGCCCUCACCGCUCA on MCF7?
### Response 2.27

### Prompt Hi! What's the reported HRG-induced Akt activation (log2) for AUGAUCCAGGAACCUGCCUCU on MCF7?
### Response 2.49

### Prompt Hi! What's the reported HRG-induced Akt activation (log2) for CAGUGCAAUGAUAUUGUCAAAGC on MCF7?
### Response 1.07

### Prompt Hi! What's the reported HRG-induced Akt activation (log2) for AUUCUAAUUUCUCCACGUCUUU on MCF7?
### Response 1.44

### Prompt Hi! What's the reported HRG-induced Akt activation (log2) for AAAGUGCUUCCUUUUAGAGGGU on MCF7?
### Response 0.665

### Prompt Hi! What's the reported HRG-induced Akt activation (log2) for UUACAGUUGUUCAACCAGUUACU on MCF7?
### Response 1.44

### Prompt Hi! What's the reported HRG-induced Akt activation (log2) for GCCCUCCGCCCGUGCACCCCG on MCF7?
### Response 1.17

### Prompt Hi! What's the reported HRG-induced Akt activation (log2) for AACAUUCAUUGCUGUCGGUGGGU on MCF7?
### Response 1.77

### Prompt Hi! What's the reported HRG-induced Akt activation (log2) for AUCCCACCUCUGCCACCA on MCF7?
### Response 1.2

### Prompt Hi! What's the reported HRG-induced Akt activation (log2) for AACUGGCCCUCAAAGUCCCGCU on MCF7?
### Response 2.22

### Prompt Hi! What's the reported HRG-induced Akt activation (log2) for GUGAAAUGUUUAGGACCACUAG on MCF7?
### Response 1.97

### Prompt Hi! What's the reported HRG-induced Akt activation (log2) for CGGGGUUUUGAGGGCGAGAUGA on MCF7?
### Response 2.25

### Prompt Hi! What's the reported HRG-induced Akt activation (log2) for GUGUCUGGGCGGACAGCUGC on MCF7?
### Response 1.87

### Prompt Hi! What's the reported HRG-induced Akt activation (log2) for GUGCAUUGCUGUUGCAUUGC on MCF7?
### Response 1.18

### Prompt Hi! What's the reported HRG-induced Akt activation (log2) for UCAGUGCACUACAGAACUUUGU on MCF7?
### Response 0.519

### Prompt Hi! What's the reported HRG-induced Akt activation (log2) for GGAUAUCAUCAUAUACUGUAAG on MCF7?
### Response 1.6

### Prompt Hi! What's the reported HRG-induced Akt activation (log2) for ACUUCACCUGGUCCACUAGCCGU on MCF7?
### Response 1.3

### Prompt Hi! What's the reported HRG-induced Akt activation (log2) for UGCUAUGCCAACAUAUUGCCAU on MCF7?
### Response 1.72

### Prompt Hi! What's the reported HRG-induced Akt activation (log2) for GUUGGAGGAUGAAAGUACGGAGUGAU on MCF7?
### Response 0.878

### Prompt Hi! What's the reported HRG-induced Akt activation (log2) for AUUUGUGCUUGGCUCUGUCAC on MCF7?
### Response 0.917

### Prompt Hi! What's the reported HRG-induced Akt activation (log2) for CGGCGGGGACGGCGAUUGGUC on MCF7?
### Response 2.14

### Prompt Hi! What's the reported HRG-induced Akt activation (log2) for UCCUCUUCUCCCUCCUCCCAG on MCF7?
### Response 1.77

### Prompt Hi! What's the reported HRG-induced Akt activation (log2) for UCCGAGCCUGGGUCUCCCUCUU on MCF7?
### Response 1.37
